Where these numbers come from: PubChem BioAssay AID1918944

Tested on: 786-0 complex spheroid viability
Assay: Anticancer human tumor 786-0 cell line growth inhibition;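 note: spheroids exposed to agents for seven days before readout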
Settings: curve of first compound; second compound 10 µM
PARAMETER: IC50 (nM)
The response must be a number in nM with no trailing unit.

Solved entries:
[
  {
    "MOLECULE": "COc1ccc([C@@H](O)c2cc(-c3ncnc4cc(N5CCOCC5)ccc34)c(F)cc2Cl)nn1 + NC1CC1c1ccc(-c2cccc(O)c2)cc1",
    "IC50 / nM": 2200
  },
  {
    "MOLECULE": "NS(=O)(=O)OCC1CC(n2ccc3c(NC4CCc5ccccc54)ncnc32)CC1O (stereo not drawn) + NC1CC1c1ccc(-c2cccc(O)c2)cc1",
    "IC50 / nM": 165
  },
  {
    "MOLECULE": "Nc1ncn(C2CC(O)C(CO)O2)c(=O)n1 (stereo not drawn) + NC1CCC(NC2CC2c2ccccc2)CC1",
    "IC50 / nM": 628
  }
]

# evaluate next
Problem: For CC[C@@]1(O)C(=O)OCc2c1cc1n(c2=O)Cc2cc3c(CN(C)C)c(O)ccc3nc2-1 + NC1CCC(NC2CC2c2ccccc2)CC1 , what is its reported IC50?
Result: 3.01
